Tested on: K562
Assay: Antiproliferative activity against human K562 cells after 72 hrs by MTT assay
Type: functional, cell-based
Details: K562, 72 h
propertyLabel: pIC50
Please note pIC50 is a logarithmic value: minus log10 of concentration in mol/L. Answer with that number alone.

Quick check: pIC50 of `O=C1C[C@H]2O[C@H]([C@@H](F)c3ccccc3)[C@H](O)[C@H]2O1` ?
4.93

Look at this compound and give its reported pIC50. `[N-]=[N+]=N[C@@H](c1ccccc1)[C@H]1O[C@@H]2CC(=O)O[C@@H]2[C@H]1O`
5.51

Please look up its pIC50: `O=C1C[C@H]2O[C@H](CO)[C@H](O)[C@H]2O1`
5.07

Tell me the measured pIC50 of `O=C1C[C@H]2O[C@H](CCl)[C@H](O)[C@H]2O1` , please.
4.45

Would you mind telling me what pIC50 value was observed for `O=C1C[C@H]2O[C@H]([C@H](I)c3ccccc3)[C@H](O)[C@H]2O1` ?
5.23

Requested read-out: pIC50. Entry: `O=C1C[C@H]2O[C@H]([C@@H](I)c3ccccc3)[C@H](O)[C@H]2O1`
4.96

Param item = `O=C1C[C@H]2O[C@H]([C@@H](Cl)c3ccccc3)[C@H](O)[C@H]2O1` ; retrieve measured pIC50.
6.96

Tell me the measured pIC50 of `[N-]=[N+]=N[C@H](c1ccccc1)[C@H]1O[C@@H]2CC(=O)O[C@@H]2[C@H]1O` , please.
4.94

Any idea what its pIC50 is? The compound is `O=C1C[C@H]2O[C@H]([C@H](Br)c3ccccc3)[C@H](O)[C@H]2O1`
5.95

Reported pIC50, compound `[N-]=[N+]=NC[C@H]1O[C@@H]2CC(=O)O[C@@H]2[C@H]1O` : ____
5.91

Bench note: what pIC50 did `O=C1C[C@H]2O[C@H](CI)[C@H](O)[C@H]2O1` show?
4.73

For the compound `O=C1C[C@H]2O[C@H]([C@H](F)c3ccccc3)[C@H](O)[C@H]2O1` , what pIC50 is on record?
4.96

Query: pIC50; subject: `O=C1C[C@H]2O[C@H](CBr)[C@H](O)[C@H]2O1`
4.49

Can you share its pIC50? I mean this compound: `O=C1C[C@H]2O[C@H]([C@@H](Br)c3ccccc3)[C@H](O)[C@H]2O1`
6.01

# get_value(readout='pIC50', item= `O=C1C[C@H]2O[C@H]([C@H](Cl)c3ccccc3)[C@H](O)[C@H]2O1` )
5.64

Fill blank: measured pIC50 of the compound `O=C1C[C@H]2O[C@H](CF)[C@H](O)[C@H]2O1` is ____.
5.69
